- Test system: Plasmodium falciparum
- Assay summary: Antimalarial activity against multidrug-resistant Plasmodium falciparum K1 infected in human erythrocytes after 48 hrs by [3H]hypoxanthine incorporation assay
- Format: functional, organism-based
- Recorded conditions: Plasmodium falciparum, K1; read-out: IC50
pIC50: −log10 of the molar value.
I would appreciate it if you labelled entries T when pIC50 is 5 or higher, otherwise F.

Examples with answers:
COc1cc2c(cc1OC)CN(S(=O)(=O)c1ccc(NC3=C(Cl)C(=O)c4ccccc4C3=O)cc1)CC2 : T
C[C@H]1[C@@H](O)O[C@@H]2O[C@@]3(C)CC[C@H]4[C@H](C)CC[C@@H]1[C@@]24OO3 : T
O=C1C(Cl)=C(Nc2ccc(S(=O)(=O)N3CCc4ccccc4C3)cc2)C(=O)c2ccccc21 : F

Lookup: Is the recorded value of pIC50 equal to or greater than 5 for this compound? O=C1C(Cl)=C(Nc2cccc(S(=O)(=O)NCCc3ccccc3)c2)C(=O)c2ccccc21
Found: T

Lookup: Is the recorded value of pIC50 equal to or greater than 5 for this compound? O[C@@H](c1cc(C(F)(F)F)nc2c(C(F)(F)F)cccc12)[C@H]1CCCCN1 (relative stereo) [(S,R)-MEFLOQUINE]
Found: T
